Molecular target: Calmodulin-1 (Homo sapiens)
Test: calcium-bound CALM1 binders on microarrays, profiling panel, artefact control for SMM control-protein annotation, biochemical, small-molecule microarray, Cy5-labelled CALM1, plus calcium (AID 1112);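 also: score merges spot fluorescence with signal to noise from triplicate slides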
Conditions: Cy5-CALM1 binding fluorescence, higher = more signal
Please respond with reported composite z-score for every item in the list.
# answer = number (no unit)

# input Field request: composite z-score | item: CCOC(=O)C1=C[C@@H](c2ccccc2)N(S(=O)(=O)c2ccc(C)cc2)[C@H]1c1cccc(Cl)c1
# output 0.999

# input Field request: composite z-score | item: CN(C)CCCNC(=O)[C@@H]1c2ccccc2C(=O)N(CC23CC4CC(CC(C4)C2)C3)[C@H]1c1ccc(CO)cc1
# output -0.632

# input Field request: composite z-score | item: COC(=O)[C@H](Cc1ccccc1)N1CC(/C=C/C2CC2)=C[C@@H]1[C@@H](O)Cc1ccccc1
# output -0.513

# input Field request: composite z-score | item: CCCNC(=O)[C@@]1(c2ccc([N+](=O)[O-])cc2)CC(=O)N(C2CCCCC2)[C@@H]1c1ccc(CO)cc1I
# output 0.587

====

Tested on: Human papillomavirus type 1a protein E7 (residues 44-93)
Experiment: HPV1a E7 fragment binders on microarrays, primary screen, biochemical, small-molecule microarray, residues 44-93, 635 nm fluorescence (AID 1108);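 also: E7 fragment applied at 1 µg/mL in TBST for 1 h at 4 C; score combines spot fluorescence with its signal to noise ratio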
Settings: small-molecule microarray binding, fluorescence 635 nm; higher = more signal
Please respond with reported composite z-score for every item in the list.
# answer = number (no unit)

# input Field request: composite z-score | item: O=C1c2ccccc2[C@@]2(Cc3ccccc3N(C3CC3)C2=O)[C@H](c2ccc(CO)cc2)N1C1CCCCC1
# output 0.0731

# input Field request: composite z-score | item: CN(C)C(=O)[C@]1(CCC(=O)OC(C)(C)C)N=C(c2ccc(OCCCO)cc2)O[C@@H]1c1ccccc1
# output 1.17

# input Field request: composite z-score | item: COc1ccc([Si](C)(C)[C@@H]2[C@@H](CC(=O)N3CCC[C@H]3CO)O[C@]3(C(=O)N(Cc4ccc(N5C(=O)c6cccc7cccc5c67)cc4)c4ccccc43)[C@H]2C)cc1
# output 1.45

# input Field request: composite z-score | item: COCCCNC(=O)[C@]1(Cc2ccccc2N=[N+]=[N-])N=C(c2ccc(OCCCO)cc2)O[C@@H]1c1ccccc1N=[N+]=[N-]
# output 1.43

# input Field request: composite z-score | item: CCOC(=O)C1=CC[C@@H](c2ccc([N+](=O)[O-])cc2)N(S(=O)(=O)c2ccc(C)cc2)[C@H]1c1ccccc1
# output 1.4

# input Field request: composite z-score | item: C[C@@H]1ON(c2ccc(C(=O)OC(C)(C)C)cc2)[C@H](c2ccc(Br)cc2)[C@H]1C(=O)N1C(=O)OC[C@H]1Cc1ccccc1
# output 1.38

# input Field request: composite z-score | item: [N-]=[N+]=Nc1ccccc1C[C@@]1(C(=O)O)N=C(c2ccc(OCCCO)cc2)O[C@@H]1c1ccccc1
# output 1.3

====

Assay: PSAC antagonists in infected red cells, primary screen, cell-based, P. falciparum Indochina, OD700, 1 h (AID 1154)
Details: P. falciparum Indochina infected RBC osmotic lysis, higher = more signal, called active from +8 up or from −8 down
observation type: z-score
# answer = number (no unit)

# input Field request: z-score | item: COc1ccc([Si](C)(C)[C@@H]2[C@@H](CCn3cc([C@H](O)c4ccccc4)nn3)O[C@]3(C(=O)N(Cc4ccc(N5CCOC5=O)cc4)c4ccccc43)[C@H]2C)cc1
# output 28.2

# input Field request: z-score | item: O=C1O[C@@H](c2ccccc2)[C@@H](c2ccccc2)N2[C@@H](c3ccc(O)cc3)[C@]3(C(=O)Nc4ccc(C#CCCO)cc43)[C@@H](C(=O)NC[C@H](O)c3ccccc3)[C@H]12
# output 2.75

# input Field request: z-score | item: O=c1cccc(-c2ccc(C(F)(F)F)cc2)o1
# output 20.1

# input Field request: z-score | item: NCCCCCCNC(=O)[C@H]1C[C@H]2C(=O)N[C@@H](Cc3ccccc3)C(=O)N2[C@H]1c1ccc(O)cc1
# output 4.21

====

Test: small-molecule binders of probe aNOTCH2, primary screen, biochemical, small-molecule microarray, 635/667 nm fluorescence (AID 1121);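 also: score merges feature fluorescence read at 667 nm with its signal to noise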
Conditions: higher = more signal
observation type: composite z-score
# answer = number (no unit)

# input Field request: composite z-score | item: CC(C)NC(=O)[C@@]1(C)c2ccccc2C(=O)N(C(C)C)[C@H]1c1ccc(CO)cc1
# output -0.132

# input Field request: composite z-score | item: COc1cc2c(cc1OC)CN(C(=O)[C@H]1[C@@H]3C(=O)O[C@@H](c4ccccc4)[C@@H](c4ccccc4)N3[C@@H](c3ccc(OCCO)cc3)[C@]13C(=O)Nc1ccc(C#CCCO)cc13)CC2
# output 0.0292

# input Field request: composite z-score | item: [N-]=[N+]=Nc1ccccc1C[C@@]1(C(=O)O)N=C(c2ccc(OCCCO)cc2)O[C@@H]1c1ccccc1
# output -0.0895

# input Field request: composite z-score | item: COCCCNC(=O)[C@]1(Cc2ccccc2N=[N+]=[N-])N=C(c2ccc(OCCCO)cc2)O[C@@H]1c1ccccc1N=[N+]=[N-]
# output -0.0372

# input Field request: composite z-score | item: CCCCN1CC=CC23O[C@@H]4C=CCOC(=O)[C@@H]4[C@H]2C(=O)N(C(C)CO)[C@@H]3C1=O (some centres not stated)
# output -0.118

# input Field request: composite z-score | item: COc1ccc([Si](C)(C)[C@H]2[C@H](CCn3cc(CCO)nn3)O[C@@]3(C(=O)N(Cc4ccc(N5C(=O)c6cccc7cccc5c67)cc4)c4ccccc43)[C@@H]2C)cc1
# output -0.14

# input Field request: composite z-score | item: C=C[C@@H](COC(C)=O)NS(=O)(=O)c1ccc(Br)cc1
# output -0.0859

====

Target: Streptavidin (Streptomyces avidinii) (UniProt P22629)
Sequence (P22629 whole entry, looked up): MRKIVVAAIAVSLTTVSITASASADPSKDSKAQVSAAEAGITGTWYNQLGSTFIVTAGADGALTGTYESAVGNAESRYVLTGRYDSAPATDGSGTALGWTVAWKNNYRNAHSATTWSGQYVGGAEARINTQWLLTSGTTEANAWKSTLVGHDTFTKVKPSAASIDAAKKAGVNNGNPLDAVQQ
Test: streptavidin binders on small-molecule microarray, primary screen, artefact control for SMM compound annotation, biophysical, 635/667 nm fluorescence (AID 1147);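 also: signal reflects streptavidin binding to arrayed compounds as a control protein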
Conditions: streptavidin binding, higher = more signal
observation type: composite z-score
# answer = number (no unit)

# input Give composite z-score (Streptavidin (Streptomyces avidinii) (UniProt P22629)) of the following molecule: CCOC(=O)C1=CC[C@@H](c2cc(Cl)ccc2Cl)N(S(=O)(=O)c2ccc(C)cc2)[C@H]1c1ccc(OC)cc1
# output 0.0102

# input Give composite z-score (Streptavidin (Streptomyces avidinii) (UniProt P22629)) of the following molecule: CCCN1C(=O)[C@]2(Cc3ccccc3)N=C(c3ccc(OCCCO)cc3)O[C@@H]2c2ccccc21
# output 0.501

# input Give composite z-score (Streptavidin (Streptomyces avidinii) (UniProt P22629)) of the following molecule: COC(=O)[C@@]1(Cc2ccccc2)[C@H]2c3cc(C(=O)N4CCCC4)n(C[C@H](O)CO)c3C[C@H]2CN1C(=O)c1ccccc1
# output 1.29

# input Give composite z-score (Streptavidin (Streptomyces avidinii) (UniProt P22629)) of the following molecule: CC(C)(C)OC(=O)CC[C@]1(C(=O)O)N=C(c2ccc(OCCCO)cc2)O[C@H]1c1ccccc1
# output 0.235

====

Biological target: Streptavidin (Streptomyces avidinii) (UniProt P22629)
Assay: streptavidin binders on small-molecule microarray, primary screen, artefact control for SMM compound annotation, biophysical, 635/667 nm fluorescence (AID 1147);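 also: signal reflects streptavidin binding to arrayed compounds as a control protein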
Details: streptavidin binding, higher = more signal
observation type: composite z-score
# answer = number (no unit)

# input Field request: composite z-score | item: Cc1ccc(F)cc1S(=O)(=O)N[C@@H]1CCN(Cc2ccc(Oc3ccccc3)cc2)C1
# output -0.235

# input Field request: composite z-score | item: CC(C)CCC[C@@H](C)[C@H]1CC[C@@]2(C)C3=C(CC[C@]12C)[C@@]1(C)CC[C@H](OC(=O)c2ccc(Br)cc2)C(C)(C)C1CC3 (some centres undefined)
# output 0.0916

# input Field request: composite z-score | item: O=C1O[C@@H](c2ccccc2)[C@@H](c2ccccc2)N2[C@@H](c3ccc(O)cc3)[C@]3(C(=O)Nc4ccc(C#CC5=CCCCC5)cc43)[C@@H](C(=O)N3CCN(c4ncccn4)CC3)[C@H]12
# output 0.448

# input Field request: composite z-score | item: COc1cc2c(cc1O)C(C)N(Cc1cc3c(cc1Br)OCO3)CC2 (centres undefined)
# output -0.679

# input Field request: composite z-score | item: C=C(/C(=C/C[C@@H](OC(=O)c1ccncc1)c1ccccc1OCCO)c1cc(C(=O)OC)ccc1OC)C(C)C
# output 0.187

# input Field request: composite z-score | item: COC(=O)C(CC#Cc1ccc2c(c1)[C@]1(C(=O)N2)[C@H](C(=O)O)[C@H]2C(=O)O[C@H](c3ccccc3)[C@H](c3ccccc3)N2[C@@H]1c1ccccc1OCCO)C(=O)OC
# output 0.678

# input Field request: composite z-score | item: C=C1C2CC3C(=C4C(CO[C@@H]4[C@H]4CCCN4S(=O)(=O)c4ccccc4[N+](=O)[O-])C4C(=O)N(C)C(=O)C34)CC2C(=O)N1C (some centres undefined)
# output -0.207

# input Field request: composite z-score | item: COCCOC(=O)N1C(=O)[C@@]2(c3ccccc31)[C@H](C(=O)N1CCN(c3ncccn3)CC1)[C@H]1C(=O)O[C@H](c3ccccc3)[C@H](c3ccccc3)N1[C@@H]2c1ccc(OCCO)cc1
# output 1.19

# input Field request: composite z-score | item: O=C1OCCC=C[C@H]2OC34C=CCN(c5ccc(Cl)cc5)C(=O)[C@H]3N(CCCCCO)C(=O)[C@@H]4C12 (some centres undefined)
# output -0.654

# input Field request: composite z-score | item: C=C(CCCC)C(=O)CC[C@@H](OC(=O)c1cccnc1)c1ccccc1OCCO
# output -0.368

# input Field request: composite z-score | item: C=CCN1C(=O)[C@]2(CC=C)N=C(c3ccc(OCCCO)cc3)O[C@@H]2c2ccccc21
# output 0.842

# input Field request: composite z-score | item: CCCNC(=O)[C@@]1(c2ccc([N+](=O)[O-])cc2)CC(=O)N(C2CCCCC2)[C@@H]1c1ccc(CO)cc1I
# output 0.277

# input Field request: composite z-score | item: COc1cc2c(cc1OC)CN(C(=O)[C@H]1[C@@H]3C(=O)O[C@@H](c4ccccc4)[C@@H](c4ccccc4)N3[C@@H](c3ccc(OCCO)cc3)[C@]13C(=O)Nc1ccc(C#CC4(O)CCCCCC4)cc13)CC2
# output 1.54

# input Field request: composite z-score | item: C=C(/C=C/CNS(=O)(=O)c1ccc(C)cc1)[C@H](O)[C@H]1CCCN1S(=O)(=O)c1ccccc1[N+](=O)[O-]
# output 0.337
